Assay: LC/MS of blood plasma sample: number of times of freezing and thawing (Table F)
Assay type: physicochemical, human
Settings: detection intensity relative to 1 at 2 times, freezing and thawing 4 times

molecule: O=C(O)CCC(=O)O
Rate of increase or decrease: 1.46

molecule: Nc1ccn([C@@H]2O[C@H](COP(=O)(O)O)[C@@H](O)[C@H]2O)c(=O)n1 [Cytidine monophosphate]
Rate of increase or decrease: 1.98

molecule: N=C(N)NCCC[C@H](N)C(=O)O
Rate of increase or decrease: 1.34

molecule: N[C@@H](CS)C(=O)O
Rate of increase or decrease: 1.99

molecule: Nc1ncnc2c1ncn2[C@@H]1O[C@H](COP(=O)(O)O)[C@@H](O)[C@H]1O [Adenosine monophosphate]
Rate of increase or decrease: 1.50

molecule: Nc1ncnc2c1ncn2[C@@H]1O[C@H](CSCC[C@H](N)C(=O)O)[C@@H](O)[C@H]1O
Rate of increase or decrease: 2.09

molecule: N[C@@H](CCSC[C@H](N)C(=O)O)C(=O)O
Rate of increase or decrease: 1.52

molecule: N[C@@H](Cc1ccc(O)c(O)c1)C(=O)O
Rate of increase or decrease: 0.95

molecule: Nc1ncnc2nc[nH]c12
Rate of increase or decrease: 1.37

molecule: O=c1[nH]c(=O)c2[nH]cnc2[nH]1
Rate of increase or decrease: 1.77

---

Test: LC/MS of blood plasma sample: time from blood collection to centrifugation (Table D)
Format: physicochemical, human
Conditions: detection intensity relative to 1 at 15 minutes, blood collection to centrifugation, after 12 hours
Procedure: At room temperature, 5 mL of blood from a healthy subject was taken into a blood-collecting vessel containing EDTA, and the blood-collecting vessel was inverted for mixing, then cooled, and allowed to stand at 4° C. […]
The label depends only on Rate of increase or decrease: fulfilled if it is at least 1, not fulfilled if it is smaller.

compound: NC(=O)NCCC[C@H](N)C(=O)O
group: not fulfilled
--
compound: O=c1[nH]c(=O)c2[nH]c(=O)[nH]c2[nH]1
group: fulfilled
--
compound: C[C@H](CCC(=O)O)[C@H]1CC[C@H]2[C@@H]3[C@H](O)C[C@@H]4C[C@H](O)CC[C@]4(C)[C@H]3C[C@H](O)[C@]12C
group: fulfilled
--
compound: N[C@@H](CCSC[C@H](N)C(=O)O)C(=O)O
group: fulfilled
--
compound: CC(C)C[C@H](N)C(=O)O
group: not fulfilled
--
compound: N[C@@H](CSSC[C@H](N)C(=O)O)C(=O)O
group: not fulfilled
--
compound: N=C(N)NCCC[C@H](NC(CC(=O)O)C(=O)O)C(=O)O (stereo partly shown)
group: not fulfilled

---

Assay: LC/MS of blood plasma sample: time from blood collection to centrifugation (Table D)
Assay type: physicochemical, human
Conditions: detection intensity relative to 1 at 15 minutes, blood collection to centrifugation, after 6 hours
Listed here are compounds together with their documented Rate of increase or decrease.

compound: C[S+](CC[C@H](N)C(=O)[O-])C[C@H]1O[C@@H](n2cnc3c(N)ncnc32)[C@H](O)[C@@H]1O (stereo partly shown)
Rate of increase or decrease: 0.62

compound: Nc1nc2c(ncn2[C@@H]2O[C@H](CO)[C@@H](O)[C@H]2O)c(=O)[nH]1
Rate of increase or decrease: 1.57

compound: Nc1ncnc2nc[nH]c12
Rate of increase or decrease: 0.63

compound: O=c1[nH]c(=O)c2[nH]cnc2[nH]1
Rate of increase or decrease: 1.39

compound: O=C(O)CC(O)C(=O)O (stereo not shown)
Rate of increase or decrease: 0.58

compound: NCCCC(=O)O
Rate of increase or decrease: 0.70

compound: N[C@@H](CC(=O)O)C(=O)O
Rate of increase or decrease: 1.46

compound: O=C(O)CCC(=O)O
Rate of increase or decrease: 0.61

compound: N=C(N)NCCC[C@H](N)C(=O)O
Rate of increase or decrease: 0.69

compound: NCCc1ccc(O)c(O)c1
Rate of increase or decrease: 0.53
